Test system: HT29 colon
Experiment: NCI-60 one-dose screen, 48 h (100 = growth as untreated, 0 = no growth, -100 = all killed)
Conditions: 10 µM unless noted
Procedure: Growth inhibition of the HT29 human tumor cell line is measured as a screen for anti-cancer activity. Cells are grown in 96 well plates and exposed to the test compound for 48 hours. Compounds are tested at a single concentration, which is 10^-5 M for most compounds. The reported endpoint is percent growth (GI% or GIPRCNT), where numbers from 0 - 100% represent growth inhibition, and numbers from -100% - 0 represent cell death. For example, a value of 40 represents 60% growth inhibition. […]
This is part of a sample that, as a whole, favours compounds with a hit. Of some 83,000 tested, about 20% had one in any assay.
Please respond with rule met when measured growth is strictly beneath 90%, and with rule not met in all other cases.

COc1ccc(/C=C\c2cc(OC)c(OC)c(OC)c2)cc1N/C=C\C(=O)c1c[nH]c2ccccc12	rule met
CCC(C)/C=C(C)/C=C/C(=O)c1c(O)c(-c2ccc(O)cc2)c[nH]c1=O (stereo unspecified)	rule met
CC(=O)[O][Hg][c]1ccccc1	rule met
CC1(C)N=C(N)N=C(N)N1c1cccc(C(=O)Nc2cccc(S(=O)(=O)F)c2)c1	rule not met

hey, is growth for O=C(O)CNC(=O)c1ccccc1 lower than 90% or not?
rule not met

* * *

test system: HL-60(TB) leukemia; experiment: NCI-60 one-dose screen, 48 h; details: 10 µM unless noted
Compounds without any hit were thinned out: in the full panel of roughly 83,000, 20% have a hit. Calls of active or inactive are those of the source. How the source made its calls: active means growth percent below 10; inactive means the rest.
Respond using exactly one of the listed classes: True = active, False = inactive

For orientation, consider the following solved cases.
CC(C)(O)CC(=O)NCCn1ccc2ncnc(Nc3ccc(Oc4cccc(C(F)(F)F)c4)c(Cl)c3)c21	True
CC1(C)N=C(N)N=C(N)N1c1ccc(OCC(=O)Nc2ccccc2)c(Cl)c1	False
Cc1ccc(S(=O)(=O)NCCNc2nccc(-c3c(-c4ccc(O)cc4)nc4sccn34)n2)cc1	False
CC(=O)n1c(/C(C#N)=C/c2ccc(N(C)C)cc2)cc2ccccc21	False
OC(c1ccccc1)(c1ccccc1)c1ccccc1-c1ccccc1	False
O=C(O)Cc1ccc2c(c1)Cc1cccnc1O2	False
NC(=NCCCOc1ccc(F)cc1)Nc1ccc(Cl)c(Cl)c1	False
COC(=O)[C@H](Cc1cn(C)cn1)NC(=O)[C@@H](NC(=O)Nc1cc(C(F)(F)F)cc(C(F)(F)F)c1)C(C)C	True
NS(=O)(=O)c1ccc(-n2ncc3c(N/N=C/c4ccccc4)ncnc32)cc1	False
OCc1ccc(N2CCc3cccc(F)c3C2)cc1Cl	False

Entry COc1ccc(-c2nc(-c3cc(OC)cc(OC)c3)[nH]c2-c2ccc(OC)cc2)cc1 : call = ?
False

Entry O=C(Nc1ccc(Oc2ccc(F)cc2)c(Cl)c1)c1cccnc1 : call = ?
False

Entry S=c1cc(S)c2cc(Br)ccc2[nH]1 : call = ?
False

Entry O=C(O)CSCc1nc2ccccc2[nH]1 : call = ?
False

Entry CCCCCCCCCN1C(=O)/C(=c2\sc3n(c2=O)C2C(NN=3)N(CC)C(=O)N2CC)c2ccccc21 (stereo not given) : call = ?
False

Entry Cn1c(=O)c2c(c3ccccc31)OC(N)=C(C#N)C21C(=O)c2ccccc2C1=O : call = ?
False

Entry Cn1c(=O)c2[nH]c(CCCc3nc4c([nH]3)c(=O)n(C)c(=O)n4C)nc2n(C)c1=O : call = ?
False
